Molecular target: 3-galactosyl-N-acetylglucosaminide 4-alpha-L-fucosyltransferase FUT3 (Homo sapiens) (UniProt P21217)
Sequence (P21217 whole entry): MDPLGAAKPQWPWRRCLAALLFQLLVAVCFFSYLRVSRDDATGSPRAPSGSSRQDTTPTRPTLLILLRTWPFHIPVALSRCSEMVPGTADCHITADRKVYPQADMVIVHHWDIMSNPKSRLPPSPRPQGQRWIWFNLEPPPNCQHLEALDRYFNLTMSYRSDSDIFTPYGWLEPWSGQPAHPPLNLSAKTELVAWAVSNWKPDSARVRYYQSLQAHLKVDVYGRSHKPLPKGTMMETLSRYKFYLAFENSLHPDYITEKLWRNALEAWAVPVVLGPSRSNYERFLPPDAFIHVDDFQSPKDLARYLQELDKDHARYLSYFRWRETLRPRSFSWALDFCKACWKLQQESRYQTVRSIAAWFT
Test: In vitro inhibition of Fucosyltransferase 3
Set-up: concentration or dose not given beside the values
Settings: concentration not given here
Measured attribute: inhibition (%)

Some compounds with known inhibition results, for comparison:
- Smiles notation: "C[C@@H]1O[C@H](OP(=O)(O)OP(=O)(O)OC[C@H]2O[C@@H](n3cnc4c(O)ncnc43)[C@H](O)[C@@H]2O)[C@@H](O)[C@@H](O)[C@H]1O"
  inhibition, %: 68
- Smiles notation: "C[C@@H]1O[C@H](OP(=O)(O)OP(=O)(O)OC[C@H]2O[C@@H](n3cnc4c(N)ncnc43)[C@H](O)[C@@H]2O)[C@@H](O)[C@@H](O)[C@H]1O"
  inhibition, %: 76
- Smiles notation: "C[C@@H]1O[C@H](OP(=O)(O)OP(=O)(O)OC[C@H]2O[C@@H](n3cnc4c(=O)[nH]c(=O)[nH]c43)[C@H](O)[C@@H]2O)[C@@H](O)[C@@H](O)[C@H]1O"
  inhibition, %: 73

[1] C[C@@H]1O[C@H](OP(=O)(O)OP(=O)(O)OP(=O)(O)OC[C@H]2O[C@@H](n3cnc4c(O)nc(N)nc43)[C@H](O)[C@@H]2O)[C@H](O)[C@@H](O)[C@@H]1O
[2] C[C@@H]1O[C@H](OP(=O)(O)OP(=O)(O)OC[C@H]2O[C@@H](n3cnc4c(O)nc(N)nc43)[C@H](O)[C@@H]2O)[C@H](O)[C@@H](O)[C@@H]1O
[Q] In terms of reported inhibition, does 1 or 2 have the smaller number? Kindly give the label for the entry you pick.
[A] 1

---

Molecular target: 4-galactosyl-N-acetylglucosaminide 3-alpha-L-fucosyltransferase FUT6 (Homo sapiens) (UniProt P51993)
Sequence (P51993 whole entry): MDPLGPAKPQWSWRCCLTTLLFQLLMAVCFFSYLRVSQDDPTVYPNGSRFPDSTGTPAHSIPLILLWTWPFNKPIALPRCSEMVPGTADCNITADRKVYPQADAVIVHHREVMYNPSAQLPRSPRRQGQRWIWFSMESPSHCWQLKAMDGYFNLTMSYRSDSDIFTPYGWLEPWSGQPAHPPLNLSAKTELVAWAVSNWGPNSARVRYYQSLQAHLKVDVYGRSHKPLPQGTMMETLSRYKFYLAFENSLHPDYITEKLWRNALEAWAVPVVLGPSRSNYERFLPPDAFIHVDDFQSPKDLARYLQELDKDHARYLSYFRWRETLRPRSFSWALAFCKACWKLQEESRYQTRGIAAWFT
Assay: In vitro inhibition of Fucosyltransferase 6
Set-up: concentration or dose not given beside the values
Settings: concentration not given here
Measured attribute: inhibition (%)

Some compounds with known inhibition results, for comparison:
- Smiles notation: "C[C@@H]1O[C@H](OP(=O)(O)OP(=O)(O)OC[C@H]2O[C@@H](n3cnc4c(O)nc(N)nc43)[C@H](O)[C@@H]2O)[C@H](O)[C@@H](O)[C@@H]1O"
  Display unit: "%"
  inhibition: 83
- Smiles notation: "C[C@@H]1O[C@H](OP(=O)(O)OP(=O)(O)OC[C@H]2O[C@@H](n3cnc4c(=O)[nH]c(=O)[nH]c43)[C@H](O)[C@@H]2O)[C@@H](O)[C@@H](O)[C@H]1O"
  Display unit: "%"
  inhibition: 62
- Smiles notation: "C[C@@H]1O[C@H](OP(=O)(O)OP(=O)(O)OC[C@H]2O[C@@H](n3cnc4c(O)ncnc43)[C@H](O)[C@@H]2O)[C@@H](O)[C@@H](O)[C@H]1O"
  Display unit: "%"
  inhibition: 72

[I] C[C@@H]1O[C@H](OP(=O)(O)OP(=O)(O)OC[C@H]2O[C@@H](n3cnc4c(N)ncnc43)[C@H](O)[C@@H]2O)[C@@H](O)[C@@H](O)[C@H]1O
[II] C[C@@H]1O[C@H](OP(=O)(O)OP(=O)(O)OP(=O)(O)OC[C@H]2O[C@@H](n3cnc4c(O)nc(N)nc43)[C@H](O)[C@@H]2O)[C@H](O)[C@@H](O)[C@@H]1O
[Q] In terms of reported inhibition, does I or II have the smaller number? Kindly give the label for the entry you pick.
[A] II
(II: 0%, I: 60%)
